# assayed system: T1, SYNJ2BP, P57105
# T1 sequence (P57105 8-110, limits assumed, looked up): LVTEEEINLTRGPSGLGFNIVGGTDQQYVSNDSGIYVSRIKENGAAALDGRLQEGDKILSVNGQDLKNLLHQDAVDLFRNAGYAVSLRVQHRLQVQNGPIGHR
# test details: holdup assay
# Design: key: below the threshold = too weak to quantify, mostly under pKd 3.1 to 4
# experimental parameters: plain residues with an end cap or a label only (N-terminal biotin on a linker: ado-ado)
value kind: pKd

KIEDVEITLV [FCHSD2, O94868] : 3.82
KSRPENGTVC [TMEM178B, H3BS89] : 3.93
LLQEEWETVM [PTH1R, Q03431] : below the threshold
SRPHTNETSL [MCC, P23508] : 4.84
SQPLLVHDDV [KIT, P10721] : below the threshold
QLKSGRDSTV [TMEM178A, Q8NBL3] : 4.48
TKEIPNCTSV [SORCS3, Q9UPU3] : 4.72
HDDYFYHDEL [RCN2, Q14257] : below the threshold
